Test system: SW1900 cells (KRAS G12D)
test: Cell-based pERK HTRF assay in SW1900 cells (Biological Example 5)
measurement-setup: Homo sapiens, SW1990, SW1990 cells (text: SW1900, KRAS G12D)
Consider the following compounds and their measured IC50 readings.

Simply: `CCN(c1nc(OC[C@@]23CCCN2C[C@H](F)C3)nc2c(F)c(-c3ccc(F)c4sc(N)c(C#N)c34)c(Cl)cc12)[C@@H]1CCN(C(=O)C2CC2)[C@@H]1C` , SW1900 cells (KRAS G12D), IC50 = ≤ 100 nM

***
Simply: `CCN(c1nc(OC[C@@]23CCCN2C[C@H](F)C3)nc2c(F)c(-c3ccc(F)c4sc(N)c(C#N)c34)c(C(F)(F)F)cc12)[C@H]1CCN(C(C)=O)C1` , SW1900 cells (KRAS G12D), IC50 = ≤ 100 nM

Simply: CCN(c1nc(OC[C@@]23CCCN2C[C@H](F)C3)nc2c(F)c(-c3ccc(F)c4sc(N)c(C#N)c34)c(C(F)(F)F)cc12)[C@H]1CC(=O)N2CCC[C@@H]12 (atropisomer, axis not shown; (aS)) , SW1900 cells (KRAS G12D), IC50 = ≤ 100 nM

---

Consider the following compounds and their measured pIC50 readings.
target-or-system: Avi-KRAS G12D (2-169) GTP/RAF1 RBD-3xFLAG (51-131) (Homo sapiens, UniProt P01116, G12D)
Construct: Avi-KRAS G12D (2-169)
Sequence (P01116 2-169 isoform P01116-2 G12D): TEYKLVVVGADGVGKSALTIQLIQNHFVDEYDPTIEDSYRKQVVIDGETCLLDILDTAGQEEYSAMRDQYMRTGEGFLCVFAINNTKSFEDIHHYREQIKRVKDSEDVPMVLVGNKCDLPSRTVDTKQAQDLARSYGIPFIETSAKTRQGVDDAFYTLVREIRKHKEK
test: Raf1-KRAS G12D-GTP disruption HTRF assay (Biological Example 3)
Assay type: binding
measurement-setup: KRAS G12D, GTP-loaded
pIC50: −log10 of the molar value.

Field: example entries. Status: answers known.
response.value for Cc1c(C(=O)N2CCCC2)nn2c1CN(c1nc(OCC34CCCN3CC(F)C4)nc3c(F)c(-c4ccc(F)c5sc(N)c(C#N)c45)c(C(F)(F)F)cc13)CC2 (stereo not drawn) [Compound 744] (field: pIC50) = 6.00 to 7.00

response.value for CCN(c1nc(OC[C@@]23CCCN2C[C@H](F)C3)nc2c(F)c(-c3ccc(F)c4sc(N)c(C#N)c34)c(C(F)(F)F)cc12)[C@H]1C[C@H](C)N(C(=O)C2CC2(F)F)C1 (stereo partly drawn) [Compound 881] (field: pIC50) = 6.00 to 7.00

Below: the item to evaluate.
response.value for CCN(c1nc(OC[C@@]23CCCN2C[C@H](F)C3)nc2c(F)c(-c3ccc(F)c4sc(N)c(C#N)c34)c(C(F)(F)F)cc12)[C@H]1CCN(C(=O)OCC(F)(F)F)C1 (atropisomer, axis not shown) [Compound 849] (field: pIC50) = 6.00 to 7.00

---

target-or-system: Avi-KRAS G12D (1-169) GppNHp/RAF1 RBD-3xFLAG (52-151) (Homo sapiens, UniProt P01116, G12D)
Construct: Avi-KRAS G12D (1-169)
Sequence (P01116 1-169 isoform P01116-2 G12D): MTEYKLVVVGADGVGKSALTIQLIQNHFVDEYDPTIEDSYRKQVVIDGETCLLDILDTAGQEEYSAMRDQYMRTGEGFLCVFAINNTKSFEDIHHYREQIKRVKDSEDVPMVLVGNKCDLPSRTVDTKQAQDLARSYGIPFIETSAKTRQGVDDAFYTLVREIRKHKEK
test: Raf1-KRAS G12D-GppNHP disruption HTRF assay (Biological Example 1)
Assay type: binding
measurement-setup: KRAS G12D, GppNHp-loaded; Table 11
Consider the following compounds and their measured IC50 readings.

response.value for `CC(=O)N1C[C@@H](N(C)c2nc(OC[C@@]34CCCN3C[C@H](F)C4)nc3c(F)c(-c4ccc(F)c5sc(N)c(C#N)c45)c(C(F)(F)F)cc23)[C@@H](F)C1` (field: IC50) = < 100 nM

response.value for CN(c1nc(OC[C@@H]2CC3(CC3)CN2C)nc2c(F)c(-c3ccc(F)c4sc(N)c(C#N)c34)c(C(F)(F)F)cc12)C1CC(O)C1 (stereo partly drawn) (field: IC50) = 100 to 1000 nM

response.value for `N#Cc1c(N)sc2c(F)ccc(-c3c(C(F)(F)F)cc4c(N5CCN(C(=O)CO)CC5)nc(OC[C@@]56CCCN5C[C@H](F)C6)nc4c3F)c12` (field: IC50) = 100 to 1000 nM

***
response.value for `CN(c1nc(OCC23CCCN2CCC3)nc2c(F)c(-c3ccc(F)c4sc(N)c(C#N)c34)c(C(F)(F)F)cc12)[C@H]1C[C@@H](O)C1` (field: IC50) = < 100 nM

response.value for CN(c1nc(OC[C@@]23CCCN2C[C@H](F)C3)nc2c(F)c(-c3ccc(F)c4sc(N)c(C#N)c34)c(C(F)(F)F)cc12)C1CC(F)C1 (stereo partly drawn) (field: IC50) = 100 to 1000 nM

response.value for `CO[C@H]1C[C@@H](N(C)c2nc(OC[C@@]34CCCN3C[C@H](F)C4)nc3c(F)c(-c4ccc(F)c5sc(N)c(C#N)c45)c(C(F)(F)F)cc23)C1` (field: IC50) = 100 to 1000 nM

All figures here come from patent US20260042764A1.
